A collection of compounds and their measured herbicidal effect against ALOMY (Alopecurus myosuroides)
- Tested on: Alopecurus myosuroides
- ASSAY OVERVIEW: Herbicidal post-emergence action
- Format: in vivo
- EXPERIMENTAL SETUP: post-emergence method, 80 g/ha
Please give a number only; it is taken to be in %.

compound="C#CCON=C1CC2C(=O)C(c3c(C)cc(C)cc3C)=C(OC(=O)C(C)(C)C)C2C1 (stereo not shown) [I-b-59]" study_system="Alopecurus myosuroides" value_units=% observed_measurement=20

Request: Given the entry COC(=O)OC1=C(c2c(C)cc(C)cc2C)C(=O)C2CC(=O)CC12 (racemic) [I-c-57] , report its measured herbicidal effect against ALOMY (Alopecurus myosuroides).
Result: 90

Request: Given the entry COc1cc(C)cc(C)c1C1=C([O-])C2CC3(CC2C1=O)OCCCO3.[Na+] (stereo not shown) [I-f-4] , report its measured herbicidal effect against ALOMY (Alopecurus myosuroides).
Result: 100

Request: Given the entry CCC(=O)OC1=C(c2c(CC)cc(C)cc2CC)C(=O)C2CC3(COC(C)(C)O3)CC12 (stereo not shown) [I-b-6] , report its measured herbicidal effect against ALOMY (Alopecurus myosuroides).
Result: 90
